Measured values drawn from ChEMBL document CHEMBL1140940 for this set.

Experiment: Clearance in mouse at 2 mg/kg, iv
Format: ADME, organism-based
Design: dose 2 mg/kg, route intravenous
Settings: in vivo
attribute_measured: clearance (mL/min/kg)
The response must be a number in mL/min/kg with no trailing unit.

Need clearance, item "CONC(=O)c1cn(-c2ccc3c(c2)CCC3)c2nc(Nc3ccc(C4CCN(C)CC4)cc3)ncc2c1=O"
34

---

Target: High affinity nerve growth factor receptor (Homo sapiens, UniProt P04629)
Sequence (P04629 whole entry): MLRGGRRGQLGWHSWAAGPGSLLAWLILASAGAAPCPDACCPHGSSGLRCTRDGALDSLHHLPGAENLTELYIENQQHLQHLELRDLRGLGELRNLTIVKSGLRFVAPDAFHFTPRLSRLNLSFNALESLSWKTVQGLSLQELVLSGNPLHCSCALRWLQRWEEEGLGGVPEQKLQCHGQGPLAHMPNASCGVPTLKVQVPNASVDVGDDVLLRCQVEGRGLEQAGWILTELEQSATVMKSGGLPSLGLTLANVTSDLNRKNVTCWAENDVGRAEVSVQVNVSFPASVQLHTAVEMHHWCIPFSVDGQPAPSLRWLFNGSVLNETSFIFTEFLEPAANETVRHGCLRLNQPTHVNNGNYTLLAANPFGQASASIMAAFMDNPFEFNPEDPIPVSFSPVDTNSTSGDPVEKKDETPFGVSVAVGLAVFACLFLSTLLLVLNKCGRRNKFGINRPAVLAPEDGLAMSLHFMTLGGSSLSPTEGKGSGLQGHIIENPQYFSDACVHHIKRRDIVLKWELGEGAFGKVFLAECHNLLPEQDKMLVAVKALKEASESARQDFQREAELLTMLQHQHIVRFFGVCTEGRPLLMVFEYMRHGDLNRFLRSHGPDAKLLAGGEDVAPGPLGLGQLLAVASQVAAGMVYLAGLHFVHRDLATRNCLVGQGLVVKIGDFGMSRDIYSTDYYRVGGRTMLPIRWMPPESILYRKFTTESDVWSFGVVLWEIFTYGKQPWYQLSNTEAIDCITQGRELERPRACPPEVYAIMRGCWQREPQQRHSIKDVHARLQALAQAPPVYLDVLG
attribute_measured: IC50 (nM)
Provide the reading as a plain figure in nM.

Any idea what IC50 came out for "CONC(=O)c1cn(-c2ccc3c(c2)CCC3)c2nc(Nc3ccc(C4CCN(C)CC4)cc3)ncc2c1=O" on High affinity nerve growth factor receptor (Homo sapiens, UniProt P04629)?
500
